The values you see were collected from patent US8557816B2.

# TGT: AuroraA-TPX2 (Homo sapiens)
# Construct: 20 μL of AuroraA-TPX2 KD GST for a final volume of about 41 μL; GST
# Sequence (O14965 133-383 limits assumed): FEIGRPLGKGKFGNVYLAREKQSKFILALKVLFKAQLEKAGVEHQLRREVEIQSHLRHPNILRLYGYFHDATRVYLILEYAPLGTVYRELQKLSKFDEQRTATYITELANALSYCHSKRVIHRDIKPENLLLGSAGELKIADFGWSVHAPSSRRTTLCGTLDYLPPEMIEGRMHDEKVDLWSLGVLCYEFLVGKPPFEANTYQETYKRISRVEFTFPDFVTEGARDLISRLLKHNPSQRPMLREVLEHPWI
# Sequence (Q9ULW0 1-43 partner limits assumed): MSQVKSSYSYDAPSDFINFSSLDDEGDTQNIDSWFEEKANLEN
# PROTOCOL: AuroraA-TPX2 Homogeneous Time Resolved Fluorescent (HTRF) kinase assay
# Type: biochemical
# TEST_CONDITIONS: average; read-out: AurA_IC50_IP (uM Avg)
Consider the following molecules; for each one, report its IC50.
Please format your answer as a value with the unit trailing.

A selection of reference data follows.
| MOLECULE | RESULT |
| --- | --- |
| COc1cnc2c(Oc3ccc(Nc4nnc(-c5ccc(Cl)c(C#N)c5)c5ccccc45)cc3)ccnc2c1 | 0.018 µM |
| COc1ccc2c(C(O)c3ccc(Nc4nnc(-c5ccc(Cl)cc5)c5ccccc45)cc3)ccnc2c1 (stereo not shown) | 0.223 µM |

Batch lookup, IC50 per entry.
1. COc1ccc2c(Cc3ccc(Nc4nnc(-c5ccccc5)c5ccccc45)cc3)ccnc2c1
2. N#Cc1ccc(-c2nnc(Nc3ccc(Oc4ccnc5cc(C#N)ccc45)cc3)c3ccccc23)cc1

0.176 µM
0.454 µM
